Attribution: ChEMBL document CHEMBL3745652

Test: Plasma protein binding in human
Assay type: ADME, cell-free
With a cut-off of 70%, any PPB strictly below it is called condition met; any PPB meeting it or above is called condition not met.

Inquiry: # check: PPB < 70% for O=C1CSCCN1c1ccc(CO[C@@H]2COc3nc([N+](=O)[O-])cn3C2)cc1
Reply text: condition met

Inquiry: Can you check O=[N+]([O-])c1cn2c(n1)OC[C@@H](OCc1ccc(N3CCSCC3)c(F)c1)C2 next?
Reply text: condition not met

Inquiry: Can you check O=C1CCCCN1c1ccc(CO[C@@H]2COc3nc([N+](=O)[O-])cn3C2)cc1 next?
Reply text: condition met

Inquiry: Can you check O=C1COCCN1c1ccc(CO[C@@H]2COc3nc([N+](=O)[O-])cn3C2)cc1 next?
Reply text: condition met

Inquiry: Can you check O=C1CCCCN1c1ccc(CO[C@@H]2COc3nc([N+](=O)[O-])cn3C2)cn1 next?
Reply text: condition met

Inquiry: Can you check O=[N+]([O-])c1cn2c(n1)OC[C@@H](OCc1ccc(N3CCCCC3)c(F)c1)C2 next?
Reply text: condition not met

Inquiry: Can you check O=[N+]([O-])c1cn2c(n1)OC[C@@H](OCc1ccc(N3CCCCC3)nc1)C2 next?
Reply text: condition not met

Inquiry: Can you check O=[N+]([O-])c1cn2c(n1)OC[C@@H](OCc1ccc(N3CCOCC3)c(F)c1)C2 next?
Reply text: condition met

Inquiry: Can you check O=C1CSCCN1c1ccc(CO[C@@H]2COc3nc([N+](=O)[O-])cn3C2)cn1 next?
Reply text: condition met
